This collection of values is drawn from patent US10550105B2.

# System Tested: PARP7 (Homo sapiens (Human), UniProt Q7Z3E1)
# Sequence (Q7Z3E1 whole entry): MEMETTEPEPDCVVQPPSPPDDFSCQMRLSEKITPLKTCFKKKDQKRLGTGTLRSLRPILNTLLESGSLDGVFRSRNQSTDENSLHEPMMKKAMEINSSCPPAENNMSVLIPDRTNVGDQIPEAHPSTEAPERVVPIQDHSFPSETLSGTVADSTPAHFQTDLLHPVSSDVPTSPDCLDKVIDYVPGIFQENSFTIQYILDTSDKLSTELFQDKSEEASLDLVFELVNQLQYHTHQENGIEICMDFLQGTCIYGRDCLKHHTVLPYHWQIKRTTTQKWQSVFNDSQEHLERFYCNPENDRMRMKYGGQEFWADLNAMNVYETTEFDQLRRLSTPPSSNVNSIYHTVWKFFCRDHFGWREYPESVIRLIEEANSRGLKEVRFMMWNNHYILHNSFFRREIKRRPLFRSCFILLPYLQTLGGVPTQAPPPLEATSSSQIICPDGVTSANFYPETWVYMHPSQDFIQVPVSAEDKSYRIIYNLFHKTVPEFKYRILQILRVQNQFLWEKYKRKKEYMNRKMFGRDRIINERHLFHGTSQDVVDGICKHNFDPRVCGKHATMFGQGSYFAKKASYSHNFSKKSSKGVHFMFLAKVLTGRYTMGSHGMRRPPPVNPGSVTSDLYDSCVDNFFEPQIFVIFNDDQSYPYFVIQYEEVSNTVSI
# Test Description: Enzymatic assay for inhibition of PARP7: TR-FRET displacement of biotinylated Probe A from the TIPARP active site
# Particulars: Table A-1

{"Compound": "N#Cc1ccc(N2CCN(C(=O)c3cccc(OCC4CCCCN4c4cn[nH]c(=O)c4C(F)(F)F)c3)CC2)nc1 (stereo not shown)", "IC50": "0.1 to 1 µM"}
{"Compound": "N#Cc1ccc(N2CCN(C(=O)c3cccc(OCc4cccc5c4CN(c4cn[nH]c(=O)c4C(F)(F)F)C5)c3)CC2)nc1", "IC50": "< 0.1 µM"}
{"Compound": "C[C@@H](COC[C@H](N)CC(=O)N1CCN(c2ncc(C(F)(F)F)cn2)CC1)Nc1cn[nH]c(=O)c1C(F)(F)F (single isomer, unassigned) [Example 617 Isomer A]", "IC50": "< 0.1 µM"}
{"Compound": "CN1CCC(Oc2cccc3c2CN(c2cn[nH]c(=O)c2C(F)(F)F)C3)CC1", "IC50": "0.1 to 1 µM"}
{"Compound": "N#Cc1ccc(N2CCN(C(=O)CCNC[C@@H]3c4ccccc4CN3c3cn[nH]c(=O)c3Cl)CC2)nc1", "IC50": "< 0.1 µM"}
{"Compound": "O=c1[nH]ncc(N2C[C@@H]3CCCN[C@@H]3C2)c1C(F)(F)F", "IC50": "≥ 1 µM"}
{"Compound": "O=C(C[C@@H]1CC[C@H](COc2cn[nH]c(=O)c2C(F)(F)F)O1)N1CCN(c2ncc(C(F)(F)F)cn2)CC1 [Example 574 Isomer D]", "IC50": "< 0.1 µM"}
